relative growth recovery overview
Tested on: HEK293FT dCK*-IKZF1
procedure-details: relative growth recovery (pomalidomide 10 uM = 100%, DMSO = 0%); higher = more growth rescue (IKZF1 fusion degradation)
condition-set: compound concentration: 5 uM; AraC concentration: 0.3 uM; overnight pretreatment + 4 days AraC
metric: relative growth recovery

- CO[C@H]1C[C@H](O[C@H]2CC[C@@]3(C)[C@H](CC[C@@H]4[C@@H]3CC[C@]3(C)[C@@H](C5=CC(=O)OC5)[C@@H](OC(C)=O)C[C@]43O)C2)O[C@@H](C)[C@@H]1O: -12.7%
- c1ccc(CCCN2CCN(CCOC(c3ccccc3)c3ccccc3)CC2)cc1: 3.4%
- Fc1ccc(C(OCCN2CCN(CCCc3ccccc3)CC2)c2ccc(F)cc2)cc1: -10.5%
- N=C(Nc1ccccc1)Nc1ccccc1: -1.17%
- COc1ccc(C[C@H]2NC[C@H](O)[C@H]2OC(C)=O)cc1: -12.5%
- CCO[C@H]1O[C@@H]2O[C@@]3(C)CC[C@H]4[C@H](C)CC[C@@H]([C@H]1C)[C@@]24OO3: -5.64%
- O=C(CCCN1CCC(n2c(=O)[nH]c3ccccc32)CC1)c1ccc(F)cc1: 1.78%
- CC[C@@]1(C2O[C@@H](C3O[C@@](O)(CO)[C@H](C)C[C@@H]3C)C[C@@H]2C)CC[C@H]([C@]2(C)CC[C@]3(C[C@H](O)[C@@H](C)[C@@H]([C@@H](C)[C@@H](OC)[C@H](C)C(=O)O)O3)O2)O1 (stereo partly specified): -0.68%
- CN(C)C(=S)SSC(=S)N(C)C: -12.7%
- C=C1[C@@H](C)[C@H]2[C@H](Cc3ccccc3)NC(=O)[C@]23OC(=O)/C=C/[C@H](O)CCC[C@@H](C)C/C=C/[C@H]3[C@@H]1O: -8.39%
- C[C@H]1CCC/C=C/C2C[C@H](O)C[C@H]2[C@H](O)/C=C/C(=O)O1 (stereo partly specified): -10%
- N#Cc1nn(-c2c(Cl)cc(C(F)(F)F)cc2Cl)c(N)c1S(=O)C(F)(F)F (stereo unspecified): -1.52%
- ClC(C=C3)=C(Cl)C=[C@@]3[C@H]2C1=CC=CC=C1[C@H](NC)C2: -3.33%
- O=[N+]([O-])c1ccc(Cl)c([N+](=O)[O-])c1: -12.8%
- C[C@]12CCC3C(CC[C@]4(O)C[C@@H](O)CC[C@]34C=O)[C@@]1(O)CCC2C1=CC(=O)OC1 (stereo partly specified) [Strophantidin]: -11.4%
- c1ccc2c(c1)Nc1ccccc1S2: 0.68%
- CCOc1ccccc1-n1c(C(C)N2CCN(C(=O)COc3ccc(Cl)cc3)CC2)nc2ccccc2c1=O (stereo unspecified): -1.44%
- OC1=[C@]([C@]2=C(O)C(C(C=O)=C(O)C(O)=C3C(C)C)=C3C=C2C)C(C)=CC4=C1C(C=O)=C(O)C(O)=C4C(C)C: -11.7%
- CC[C@H]1CN2CCc3cc(OC)c(OC)cc3C2C[C@@H]1CC1NCCc2cc(OC)c(OC)cc21 (stereo partly specified): -12.4%
- Oc1cc(Cl)ccc1Oc1ccc(Cl)cc1Cl: -0.94%
- C=C(C)CN1CC[C@]23c4c5ccc(O)c4O[C@H]2c2[nH]c4ccccc4c2C[C@@]3(O)C1C5: -3.3%
- Clc1ccc(C(OCCN2CCCCC2)c2ccccc2)cc1 (stereo unspecified): -0.525%
- N#Cc1cn([C@@H]2O[C@H](CO)[C@@H](O)[C@H]2O)c2ncnc(N)c12: -12.9%
- CCC(C)[C@H]1O[C@]2(C=C[C@@H]1C)C[C@@H]1C[C@@H](C/C=C(\C)[C@@H](OC3C[C@H](OC)C(O[C@H]4C[C@H](OC)[C@@H](O)[C@H](C)O4)[C@H](C)O3)[C@@H](C)/C=C/C=C3\CO[C@@H]4[C@H](O)C(C)=C[C@@H](C(=O)O1)[C@]34O)O2 (stereo partly specified): -3.08%
- Fc1ccc(C(OCCN2CCN(C/C=C/c3ccccc3)CC2)c2ccc(F)cc2)cc1: 8.18%
- C[C@]12CC[C@H](O)C[C@H]1CC[C@@H]1[C@@H]2CC[C@]2(C)[C@@H](C3=CC(=O)OC3)CC[C@]12O: -12.2%
- Clc1ccc(N2CCN(Cc3c[nH]c4ncccc34)CC2)cc1: 2.15%
- C[C@@]12C(=O)OC(=O)[C@]1(C)[C@H]1CC[C@@H]2O1: -4.16%
- CCCCCCC[n+]1ccc(-c2cc[n+](CCCCCCC)cc2)cc1: -3.88%
